biological target: safety panel of 22 common off-targets, comprising enzymes, receptors and ion channels (e.g., COX2, PDEs, INSR, GABA, NMDA, CaV-L); experiment: Eurofins SafetyScreen panel of 22 common off-targets; details: read-out: IC50 against safety panel off-targets
metric name: IC50

[ask] For the compound N#Cc1cc(-c2ccc(C(=O)N3CCNCC3)cc2)ccc1-n1cc(O)c(=O)c(C(=O)O)c1 [Compound 24] , report IC50.
[reply] > 100 µM
